All values here come from patent US20250236642A1.

target: HLA-A*24:02 molecule (Homo sapiens, UniProt P04439, D101N/D140Y/D185E/E176V/E190D/F33S/G103R/G107R/I119L/I121M/I306V/K335N/L105A/L180Q/L300P/N151K/N90K/Q86E/Q94H/R106L/R138H/R89G/T104I/T345S/V100E/W191G/Y123F); assay: Binding of peptide to HLA-A*24:02 molecule using C1R-A24 cells; settings: Table 2; dissociation constant Kd value (−log Kd value); >−3.0 = no significant binding ability; read-out: Measured value of allele A*24:02 (converted)
No end group written: not given here.
experimental_readout: Kd

Items follow; give Kd for each.
1. SLPFSPSQF [compound 56]
2. VMSHHGEKL [compound 19]
3. EAIDGYITL [compound 47]

Result:
1. 0.1 µM
2. 0.793 µM
3. 2.91 µM

Batch of 6 sequences: report Kd for each.
1. YLYDPPTTI [compound 4]
2. ARHSTIPLV [compound 77]
3. VFGRVMQID [compound 66]
4. LVITRKSFI [compound 30]
5. ILSDHQQSQ [compound 70]
6. CIDEHQWQL [compound 28]

Result:
["0.692 µM", "> 1000 µM", "3.87 µM", "3.47 µM", "> 1000 µM", "332 µM"]

# per-item lookup of Kd; items listed below
1. TVLVPPRNL [compound 48]
2. GRVMQIDGV [compound 68]
3. LHITRKSFI [compound 63]
4. YVYDPPTTI [compound 2]
5. MLPQTPSHL [compound 24]
6. FIDSDSSSW [compound 57]
7. CLDEHQWQL [compound 9]
8. AYRTCWIFS [compound 49]

Result:
1. 5.36 µM
2. 23.4 µM
3. 17.5 µM
4. 0.584 µM
5. 0.0716 µM
6. 19.9 µM
7. 1.36 µM
8. 3.82 µM

====

target: HLA-A*02:06 molecule (Homo sapiens, UniProt P04439, D140Y/D185E/D98H/E176V/E277Q/F33Y/G131W/G231S/I119V/I121R/I166T/I218V/L300P/L318F/N151K/N90K/P208A/P217A/Q86G/Q94H/R138H/R169H/T345S); construct: expressed in transfected cells; host or cells: RA2.6 cells (mouse TAP-deficient RMAS with HLA-A*02:06 cDNA); experiment: Binding of peptide to HLA-A*02:06 molecule using RA2.6 cells; conditions: Table 2; dissociation constant Kd value (−log Kd value); >−3.0 = no significant binding ability; read-out: Measured value of allele A*02:06 (converted)
No end group written: not given here.
Assign log10 of Kd to each entry below.
Scale type: logarithmic (base 10). Underlying Kd unit: µM.

Solved cases (3 shown):
Q: Given LIITRKSFI [compound 29] , state its recorded log10 of Kd.
Result: 2.36

Q: What does the record list as log10 of Kd for ETLQFIDSM [compound 53] ?
Result: 2.63

Q: What log10 of Kd value was documented for this sequence, LTEEHGATL [compound 42] ?
Result: 1.08

Look up log10 of Kd for the entries below, preserving their order.
1. YLYDPPTTI [compound 4]
2. ISAYRTCWI [compound 34]
3. LLLFSAAAL [compound 1]
4. FSNDFGQSL [compound 35]
5. VLLQQFQTA [compound 15]
6. CIDEHQWQL [compound 28]
7. LVEEHGATL [compound 43]

Result:
0.13
2.86
1.04
1.29
0.53
0.75
1.14

For every item in the list below, what is its measured log10 of Kd?
1. ALLAPAVLL [compound 7]
2. LIEEHGATL [compound 40]

Result:
0.16
1.18

Provide log10 of Kd values for the following items, in order.
1. CMIVHQGTI [compound 36]
2. YVYDPPTTI [compound 2]
3. KFLEAFHEV [compound 8]
4. AQISAYRTC [compound 50]
5. EAIDGYITL [compound 47]

Result:
1.63
0.45
0.19
1.91
1.28

# map each sequence to its log10 of Kd
1. LVITRKSFI [compound 30]
2. LAEEHGATL [compound 61]
3. LMITRKSFI [compound 17]
4. ALPKIRARV [compound 12]
5. SSFEFFEEA [compound 37]

Result:
2.39
1.51
1.47
1.22
-1.42

Hi, could you look up log10 of Kd for each item in my list?
1. LTITRKSFI [compound 45]
2. MLPQTPSHL [compound 24]
3. LLNPNRQTI [compound 23]
4. VMQIDGVQP [compound 67]
5. LAITRKSFI [compound 46]
6. LMEEHGATL [compound 13]
7. VMSHHGEKL [compound 19]
8. LLITRKSFI [compound 16]

Result:
[2.21, 2.04, 2.47, 2.59, 2.96, 0.32, 1.70, 1.37]
